Measured folding stability dG unfold values are reported for all entries that follow.
protocol: folding stability dG unfold from chymotrypsin proteolysis; higher = more stable

SAGMNLDNMKIKEIKLQVNPDGSVEVPFEFRFPNGKPMKVSMRVNNGMIEIYYPNGWPITIDIPPGAFSAGG [r19_84_TrROS] : 1.48 kcal/mol
SAGGSAGGSAGGSMSTVFVSTLTLPDPSGLSTVLTTTVEIDPEGNAHPVTSTEEVSAAASAGGSAGGSAGGS [r4_80_JUSTAS] : 0.33 kcal/mol
SAGGMTITIEKEGDTLKVTITIRDAATNETYTVEATLTRKEDGSLTLEIRFEDGSTKTINLKDIKLVSAGGS [r16_154_TrROS_Hall] : 4.11 kcal/mol

As a next step, examine the sequence that follows.
The reported folding stability dG unfold of the sequence SASSFPPGSTATLTVRVTDPAGTATTTLTIPLSVDPSTGKAVSLEEVYEILKELGVDPANVTITSLTVSSAG [r14_93_JUSTAS] was 3.14 kcal/mol

====

protocol: folding stability dG unfold (combined trypsin and chymotrypsin); higher = more stable
measure: folding stability dG unfold (kcal/mol)
Expressed in kcal/mol, but write only the number.

SKKKTLKIVDKETNVVIEMTAEELAEKLGLSVEDLEIEVVDLKTKEVKTIKIKLPKPKPEEKKKVKEEEKSA [r9_819_TrROS_Hall] : 0.75

The reported folding stability dG unfold of the sequence SAGGSAPEPIRFYFWWPGKIIEITIPPDEIEKVEIKPDNGDIDITVKLPGEEVEISITPGAIHVQTSAGGSA [r15_598_TrROS] was 2.29

The reported folding stability dG unfold of the sequence SAGGSAGGSKNMVMVEIPFEHKVKQPDPPDGKWRQHEHKPTIPYMIPPEDAEELLNSPALKKISAGGSAGGS [r12_1015_TrROS] was 0.043

The reported folding stability dG unfold of the sequence SAGGSAGGSAGGSTPSFTPVLELEFEFENDVVVRVRLYRLPDEDTYLLEVEVAPDSLKDSAGGSAGGSAGGS [r4_163_TrMRF] was 3.62

The reported folding stability dG unfold of the sequence SAGELKITIAVFRPVEKDENGKEVKVELVEVKTITISKEDLTEEEILKLAEELKKKFPNTVILVTIEPSAGG [r19_369_TrROS_Hall] was 2.91

The reported folding stability dG unfold of the sequence SAGGSEKIEVEVERREDGYLVLRVRLELFDENGELVEEIEIEVVLPREELEKMSLEELLKRLLEELSAGGSA [r2_421_TrROS_Hall] was 5.08

The reported folding stability dG unfold of the sequence SAGGSAGGSMVTIPTGTEEEVEKVIAELEKKGLKPKKVEKEGNKVTVEFPDGTKVELIIEPGKSAGGSAGGS [r20_93_JUSTAS] was 1.95

The reported folding stability dG unfold of the sequence SAGGSAGGSAGVITIPLDDINDLPPGFKVKPNNNSMMIEDGDNPIHIPPGEPVQIEPPDESAGGSAGGSAGG [r17_91_TrROS] was 0.466

The reported folding stability dG unfold of the sequence SAGGMEIKVTVEKREDGYLVVTVEKAESKEEAIEAIKKELREKYPDAEITITDKDGNTIVIKLKDLKSAGGS [r8_236_TrROS_Hall] was 2.06

The reported folding stability dG unfold of the sequence SAGGSAGGSGGMTPTSRDYVLPNGEKLAVEETFTFPDGSSVTKVLDPKTGTTTTLPASTIASASAGGSAGGS [r12_488_JUSTAS] was 0.394

The reported folding stability dG unfold of the sequence SAGGVTVSLSDPLSGNITTVPVAPNSTVTVTTSASLGGPNYTITTTVTVTLNGSTPVFTITSTVTPLSSAGG [r19_331_JUSTAS] was 3.41

The reported folding stability dG unfold of the sequence SAGKTIYIQGPLDELRKLPEIKEVEKTGNHWTLELPNVPIHIEIEPPPPVPVVPPEMPKEQMKEYMKKMSAG [r5_2_TrROS] was 0.316

The reported folding stability dG unfold of the sequence SAGGLEILEVDPDTYTITIRFGDRPLEFTVPPDYPPTITITEDPDGSVTLTIEVPDRTETFTIPRELVESAG [r5_500_TrMRF] was 1.61

The reported folding stability dG unfold of the sequence SAGGSAGGSAGGVSPEANIKEVSKDPKTGLTTSLAKDPNSDNEITITKDSSGNSSINISSAGGSAGGSAGGS [r10_450_JUSTAS] was 0.813
